Details: in THF, 302.15 K
metric: solubility (mole fraction)
Would you mind answering with just the numeric figure?

Challenge: Provide one value: measured solubility (mole fraction) of Brc1sc(Br)c(Br)c1Br
Response given: 0.0625

###

Settings: in n-butanol, 290.15 K
metric: solubility (mole fraction)
Would you mind answering with just the numeric figure?

Challenge: Provide one value: measured solubility (mole fraction) of Brc1sc(Br)c(Br)c1Br
Response given: 0.00433

###

Conditions: in n-butanol, 307.15 K
metric: solubility (mole fraction)
Would you mind answering with just the numeric figure?

Challenge: Provide one value: measured solubility (mole fraction) of Brc1sc(Br)c(Br)c1Br
Response given: 0.0077

###

Conditions: in ethyl acetate, 307.15 K
metric: solubility (mole fraction)
Would you mind answering with just the numeric figure?

Challenge: Provide one value: measured solubility (mole fraction) of Brc1sc(Br)c(Br)c1Br
Response given: 0.0216

###

Details: in toluene, 315.65 K
metric: solubility (mole fraction)
Would you mind answering with just the numeric figure?

Challenge: Provide one value: measured solubility (mole fraction) of Brc1sc(Br)c(Br)c1Br
Response given: 0.0756

###

Details: in toluene, 307.15 K
metric: solubility (mole fraction)

Challenge: Provide one value: measured solubility (mole fraction) of Brc1sc(Br)c(Br)c1Br
Response given: 0.0626

###

Settings: in n-butanol, 297.15 K
metric: solubility (mole fraction)
Would you mind answering with just the numeric figure?

Challenge: Provide one value: measured solubility (mole fraction) of Brc1sc(Br)c(Br)c1Br
Response given: 0.0054

###

Conditions: in ethanol, 315.65 K
metric: solubility (mole fraction)
Would you mind answering with just the numeric figure?

Challenge: Provide one value: measured solubility (mole fraction) of Brc1sc(Br)c(Br)c1Br
Response given: 0.00404

###

Details: in methanol, 286.15 K
metric: solubility (mole fraction)

Challenge: Provide one value: measured solubility (mole fraction) of Brc1sc(Br)c(Br)c1Br
Response given: 0.000465

###

Conditions: in n-butanol, 278.05 K
metric: solubility (mole fraction)
Would you mind answering with just the numeric figure?

Challenge: Provide one value: measured solubility (mole fraction) of Brc1sc(Br)c(Br)c1Br
Response given: 0.00267

###

Settings: in ethyl acetate, 311.65 K
metric: solubility (mole fraction)
Would you mind answering with just the numeric figure?

Challenge: Provide one value: measured solubility (mole fraction) of Brc1sc(Br)c(Br)c1Br
Response given: 0.0249

###

Conditions: in ethyl formate, 297.15 K
metric: solubility (mole fraction)

Challenge: Provide one value: measured solubility (mole fraction) of Brc1sc(Br)c(Br)c1Br
Response given: 0.00809

###

Settings: in n-propanol, 302.15 K
metric: solubility (mole fraction)
Would you mind answering with just the numeric figure?

Challenge: Provide one value: measured solubility (mole fraction) of Brc1sc(Br)c(Br)c1Br
Response given: 0.00433

###

Conditions: in THF, 290.15 K
metric: solubility (mole fraction)
Would you mind answering with just the numeric figure?

Challenge: Provide one value: measured solubility (mole fraction) of Brc1sc(Br)c(Br)c1Br
Response given: 0.0511

###

Conditions: in n-butanol, 302.15 K
metric: solubility (mole fraction)
Would you mind answering with just the numeric figure?

Challenge: Provide one value: measured solubility (mole fraction) of Brc1sc(Br)c(Br)c1Br
Response given: 0.00636

###

Conditions: in THF, 278.05 K
metric: solubility (mole fraction)

Challenge: Provide one value: measured solubility (mole fraction) of Brc1sc(Br)c(Br)c1Br
Response given: 0.0405

###

Settings: in n-butanol, 286.15 K
metric: solubility (mole fraction)
Would you mind answering with just the numeric figure?

Challenge: Provide one value: measured solubility (mole fraction) of Brc1sc(Br)c(Br)c1Br
Response given: 0.00369

###

Settings: in ethyl formate, 286.15 K
metric: solubility (mole fraction)
Would you mind answering with just the numeric figure?

Challenge: Provide one value: measured solubility (mole fraction) of Brc1sc(Br)c(Br)c1Br
Response given: 0.00546

###

Conditions: in ethyl formate, 278.05 K
metric: solubility (mole fraction)

Challenge: Provide one value: measured solubility (mole fraction) of Brc1sc(Br)c(Br)c1Br
Response given: 0.00389

###

Details: in THF, 307.15 K
metric: solubility (mole fraction)
Would you mind answering with just the numeric figure?

Challenge: Provide one value: measured solubility (mole fraction) of Brc1sc(Br)c(Br)c1Br
Response given: 0.0685

###

Conditions: in THF, 297.15 K
metric: solubility (mole fraction)

Challenge: Provide one value: measured solubility (mole fraction) of Brc1sc(Br)c(Br)c1Br
Response given: 0.0572

###

Details: in ethanol, 320.15 K
metric: solubility (mole fraction)

Challenge: Provide one value: measured solubility (mole fraction) of Brc1sc(Br)c(Br)c1Br
Response given: 0.00475

###

Conditions: in n-propanol, 311.65 K
metric: solubility (mole fraction)
Would you mind answering with just the numeric figure?

Challenge: Provide one value: measured solubility (mole fraction) of Brc1sc(Br)c(Br)c1Br
Response given: 0.00584

###

Conditions: in ethyl formate, 293.15 K
metric: solubility (mole fraction)
Would you mind answering with just the numeric figure?

Challenge: Provide one value: measured solubility (mole fraction) of Brc1sc(Br)c(Br)c1Br
Response given: 0.00705

###

Details: in methanol, 315.65 K
metric: solubility (mole fraction)
Would you mind answering with just the numeric figure?

Challenge: Provide one value: measured solubility (mole fraction) of Brc1sc(Br)c(Br)c1Br
Response given: 0.0012

###

Settings: in THF, 315.65 K
metric: solubility (mole fraction)
Would you mind answering with just the numeric figure?

Challenge: Provide one value: measured solubility (mole fraction) of Brc1sc(Br)c(Br)c1Br
Response given: 0.0788

###

Details: in toluene, 311.65 K
metric: solubility (mole fraction)
Would you mind answering with just the numeric figure?

Challenge: Provide one value: measured solubility (mole fraction) of Brc1sc(Br)c(Br)c1Br
Response given: 0.0713

###

Settings: in ethanol, 293.15 K
metric: solubility (mole fraction)
Would you mind answering with just the numeric figure?

Challenge: Provide one value: measured solubility (mole fraction) of Brc1sc(Br)c(Br)c1Br
Response given: 0.002

###

Conditions: in n-propanol, 320.15 K
metric: solubility (mole fraction)

Challenge: Provide one value: measured solubility (mole fraction) of Brc1sc(Br)c(Br)c1Br
Response given: 0.00812

###

Conditions: in ethyl acetate, 281.25 K
metric: solubility (mole fraction)

Challenge: Provide one value: measured solubility (mole fraction) of Brc1sc(Br)c(Br)c1Br
Response given: 0.00924

###

Settings: in ethanol, 297.15 K
metric: solubility (mole fraction)
Would you mind answering with just the numeric figure?

Challenge: Provide one value: measured solubility (mole fraction) of Brc1sc(Br)c(Br)c1Br
Response given: 0.00221

###

Conditions: in n-propanol, 325.15 K
metric: solubility (mole fraction)
Would you mind answering with just the numeric figure?

Challenge: Provide one value: measured solubility (mole fraction) of Brc1sc(Br)c(Br)c1Br
Response given: 0.00965

###

Details: in toluene, 281.25 K
metric: solubility (mole fraction)
Would you mind answering with just the numeric figure?

Challenge: Provide one value: measured solubility (mole fraction) of Brc1sc(Br)c(Br)c1Br
Response given: 0.0314

###

Conditions: in n-butanol, 315.65 K
metric: solubility (mole fraction)
Would you mind answering with just the numeric figure?

Challenge: Provide one value: measured solubility (mole fraction) of Brc1sc(Br)c(Br)c1Br
Response given: 0.0102

###

Details: in chloroform, 315.65 K
metric: solubility (mole fraction)
Would you mind answering with just the numeric figure?

Challenge: Provide one value: measured solubility (mole fraction) of Brc1sc(Br)c(Br)c1Br
Response given: 0.0687

###

Details: in toluene, 302.15 K
metric: solubility (mole fraction)
Would you mind answering with just the numeric figure?

Challenge: Provide one value: measured solubility (mole fraction) of Brc1sc(Br)c(Br)c1Br
Response given: 0.0554

###

Conditions: in ethyl acetate, 278.05 K
metric: solubility (mole fraction)
Would you mind answering with just the numeric figure?

Challenge: Provide one value: measured solubility (mole fraction) of Brc1sc(Br)c(Br)c1Br
Response given: 0.00809

###

Conditions: in methanol, 293.15 K
metric: solubility (mole fraction)
Would you mind answering with just the numeric figure?

Challenge: Provide one value: measured solubility (mole fraction) of Brc1sc(Br)c(Br)c1Br
Response given: 0.000567

###

Details: in ethanol, 325.15 K
metric: solubility (mole fraction)

Challenge: Provide one value: measured solubility (mole fraction) of Brc1sc(Br)c(Br)c1Br
Response given: 0.00566

###

Conditions: in methanol, 320.15 K
metric: solubility (mole fraction)

Challenge: Provide one value: measured solubility (mole fraction) of Brc1sc(Br)c(Br)c1Br
Response given: 0.00144

###

Settings: in ethyl formate, 307.15 K
metric: solubility (mole fraction)
Would you mind answering with just the numeric figure?

Challenge: Provide one value: measured solubility (mole fraction) of Brc1sc(Br)c(Br)c1Br
Response given: 0.0118
